System: BHK(SR-BI) cells
test_method_notes: DiI uptake from PALM or HDL by BHK(SR-BI) cells, SR-BI un-induced or induced
Format: cell-based, hamster
condition_summary: un-induced BHK(SR-BI) cells, 4 hours; relative to protein (HDL) or peptide (PALM) concentration; mean ± SEM, n = 4
Non-standard residues stand in square brackets, D forms with d. No end group written: not given here. Aib = CC(C)(N)C(=O)O
Note to self: use true only for Un-induced DiI Uptake readings below 0.3 pmol/µg/mL; a reading exactly at 0.3 pmol/µg/mL still gets false.

QUERY: Take the substance DVFQ{AIB}LKELFNQLLEKWKQV (DVFQ[Aib]LKELFNQLLEKWKQV) [SEQ ID NO: 3] and say whether its Un-induced DiI Uptake is less than 0.3 pmol/µg/mL.
RESULT: true

QUERY: What would you report for DVFQ{AIB}LKELLNQLLEKFKQV (DVFQ[Aib]LKELLNQLLEKFKQV) [SEQ ID NO: 5] ?
RESULT: false

QUERY: What would you report for DVFQKL{AIB}ELFNQL{AIB}EKWKQV (DVFQKL[Aib]ELFNQL[Aib]EKWKQV) [SEQ ID NO: 35] ?
RESULT: false

QUERY: What would you report for DVFQKL{AIB}ELFNQLLEKWKQV (DVFQKL[Aib]ELFNQLLEKWKQV) [SEQ ID NO: 25] ?
RESULT: true

QUERY: What would you report for DV{AIB}QKLFELFNQLLEKWKQV (DV[Aib]QKLFELFNQLLEKWKQV) [SEQ ID NO: 27] ?
RESULT: false

QUERY: What would you report for DV{AIB}QKFLELFNQLLEKWKQV (DV[Aib]QKFLELFNQLLEKWKQV) [SEQ ID NO: 32] ?
RESULT: true

QUERY: What would you report for DVFQKLVELFNQLLEKWKQV [SEQ ID NO: 26] ?
RESULT: false
